Value source: patent US20240327353A1

target: 5-HT2CR (Homo sapiens, UniProt P28335); assay: Radioligand binding (competitive displacement and saturation), cell membranes; conditions: pKi at the 5-HT2CR, single experiment excluded from the reported data, excluded: excessive or incomplete radioligand displacement
Sequence (P28335 33-458): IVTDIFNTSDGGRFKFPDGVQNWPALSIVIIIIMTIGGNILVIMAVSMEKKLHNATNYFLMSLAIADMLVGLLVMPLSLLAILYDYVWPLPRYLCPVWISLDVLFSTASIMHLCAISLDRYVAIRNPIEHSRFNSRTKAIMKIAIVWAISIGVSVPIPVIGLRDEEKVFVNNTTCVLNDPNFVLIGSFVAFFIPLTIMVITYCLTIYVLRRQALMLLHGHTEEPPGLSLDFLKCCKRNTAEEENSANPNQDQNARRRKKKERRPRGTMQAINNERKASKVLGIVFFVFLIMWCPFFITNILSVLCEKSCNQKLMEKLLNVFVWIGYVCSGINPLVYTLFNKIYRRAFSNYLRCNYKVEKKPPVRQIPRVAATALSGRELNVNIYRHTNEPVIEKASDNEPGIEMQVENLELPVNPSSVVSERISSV
RECORDED_METRIC: pKi
Give only the number. pKi is defined as minus log10 of concentration in molar units.

Query: pKi; subject: CN(C)[C@@H]1Cc2ccccc2[C@@H](c2cccc(-c3cccs3)c2)C1 (single isomer, unassigned) [(2S,4R)-2c]
9.08

----------
molecular target: 5-HT2AR (Homo sapiens, UniProt P28223); construct: host or cells: HEK293, transient; experiment: Radioligand binding (competitive displacement and saturation), cell membranes; conditions: pKi 5-HT2AR, displacement of [^3H]ketanserin; mean of n independent experiments, ± SD where n ≥ 5
Sequence (P28223 whole entry): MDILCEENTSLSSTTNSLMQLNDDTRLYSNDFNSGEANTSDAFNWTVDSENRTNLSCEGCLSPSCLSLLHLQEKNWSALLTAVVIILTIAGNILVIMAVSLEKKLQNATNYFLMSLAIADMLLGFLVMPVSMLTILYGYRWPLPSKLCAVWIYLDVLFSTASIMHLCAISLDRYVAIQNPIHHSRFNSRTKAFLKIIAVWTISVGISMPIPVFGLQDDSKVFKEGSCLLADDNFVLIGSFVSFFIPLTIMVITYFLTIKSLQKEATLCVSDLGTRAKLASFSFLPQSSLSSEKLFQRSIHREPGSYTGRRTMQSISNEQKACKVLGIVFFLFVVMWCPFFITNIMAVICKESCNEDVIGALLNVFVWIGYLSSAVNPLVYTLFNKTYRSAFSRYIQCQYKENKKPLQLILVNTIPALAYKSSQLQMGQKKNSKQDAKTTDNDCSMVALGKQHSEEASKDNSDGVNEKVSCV
RECORDED_METRIC: pKi
Units for pKi: none; it is -log10 of a concentration expressed in mol/L.

Answered cases to consult:
In [3]: df
Out[3]:
                                   compound                                     tgt  reported_measurement
0  CN(C)[C@@H]1Cc2ccccc2[C@@H](c2cccc(-c3ccncc3)c2)C1 (single isomer, unassigned)  5-HT2AR (Homo sapiens, UniProt P28223)                  8.13
1  CN(C)[C@@H]1Cc2ccccc2[C@H](c2cccc(-c3ccccc3F)c2)C1 (single isomer, unassigned) [(2R,4R)-3g]  5-HT2AR (Homo sapiens, UniProt P28223)                  8.69
2  CN(C)C1Cc2ccccc2C(c2cccc(-c3ccccc3F)c2)C1 (single isomer, unassigned) [(2R,4S)-2g]  5-HT2AR (Homo sapiens, UniProt P28223)                  7.51

Param item = CN(C)[C@@H]1Cc2ccccc2[C@H](c2cccc(Br)c2)C1 (single isomer, unassigned) ; retrieve measured pKi.
7.50
